Where these numbers come from: patent US20120264735A1

target-or-system: c-Met kinase (recombinant c-Met) (Homo sapiens, UniProt P08581)
Construct: 0.27 nM recombinant c-Met
Sequence (P08581 25-1390): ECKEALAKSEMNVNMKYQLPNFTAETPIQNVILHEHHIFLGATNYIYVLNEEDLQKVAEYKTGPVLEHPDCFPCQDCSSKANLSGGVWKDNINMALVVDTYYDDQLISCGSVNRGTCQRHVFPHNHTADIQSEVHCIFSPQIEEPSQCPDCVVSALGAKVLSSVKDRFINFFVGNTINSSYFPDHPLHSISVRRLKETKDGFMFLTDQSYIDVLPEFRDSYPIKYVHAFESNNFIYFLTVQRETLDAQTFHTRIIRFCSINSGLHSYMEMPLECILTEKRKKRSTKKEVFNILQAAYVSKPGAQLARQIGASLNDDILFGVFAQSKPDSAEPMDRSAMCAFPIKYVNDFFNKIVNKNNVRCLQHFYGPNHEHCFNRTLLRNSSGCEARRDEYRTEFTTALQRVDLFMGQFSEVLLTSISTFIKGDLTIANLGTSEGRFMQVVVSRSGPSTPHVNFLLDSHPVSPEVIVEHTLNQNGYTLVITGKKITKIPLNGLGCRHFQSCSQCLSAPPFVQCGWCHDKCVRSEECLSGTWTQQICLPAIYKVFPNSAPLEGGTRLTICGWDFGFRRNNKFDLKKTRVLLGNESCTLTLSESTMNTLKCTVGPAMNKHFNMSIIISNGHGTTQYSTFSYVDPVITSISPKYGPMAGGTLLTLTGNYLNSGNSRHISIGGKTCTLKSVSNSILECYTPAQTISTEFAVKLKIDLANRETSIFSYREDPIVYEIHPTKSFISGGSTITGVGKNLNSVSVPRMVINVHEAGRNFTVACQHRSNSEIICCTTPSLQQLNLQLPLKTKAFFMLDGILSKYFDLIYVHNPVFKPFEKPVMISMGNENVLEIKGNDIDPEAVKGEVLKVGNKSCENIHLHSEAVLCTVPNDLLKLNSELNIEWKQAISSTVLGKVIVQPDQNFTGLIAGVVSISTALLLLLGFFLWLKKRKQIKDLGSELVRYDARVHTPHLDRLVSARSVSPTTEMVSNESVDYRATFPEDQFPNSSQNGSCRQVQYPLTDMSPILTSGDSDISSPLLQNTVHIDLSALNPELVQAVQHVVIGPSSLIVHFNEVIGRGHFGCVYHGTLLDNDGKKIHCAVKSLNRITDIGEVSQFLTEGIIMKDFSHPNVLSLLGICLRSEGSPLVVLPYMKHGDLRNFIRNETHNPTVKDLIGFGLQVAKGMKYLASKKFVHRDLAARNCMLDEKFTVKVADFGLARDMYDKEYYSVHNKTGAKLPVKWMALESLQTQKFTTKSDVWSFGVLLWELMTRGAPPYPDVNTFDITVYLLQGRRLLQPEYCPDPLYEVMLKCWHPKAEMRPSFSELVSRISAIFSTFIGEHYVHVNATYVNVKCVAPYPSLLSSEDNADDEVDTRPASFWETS
experimental-details: In vitro kinase assay I (homogeneous time-resolved fluorescence tyrosine kinase assay)
pIC50: −log10 of the molar value.
Overview of recorded pIC50 for various compounds

Below, each entry is followed by its recorded pIC50 result.
[
  {
    "compound": "CCCOC(=O)Nc1cccc(Cc2nn(-c3cc(F)c(Br)c(F)c3)ccc2=O)c1",
    "target-or-system": "c-Met kinase (recombinant c-Met) (Homo sapiens, UniProt P08581)",
    "quantity-name": "pIC50",
    "result": "> 7.00"
  },
  {
    "compound": "CCn1cc(-n2ccc(=O)c(C(C)c3cccc(-c4ncc(OCC5(F)CCN(C(=O)OC(C)(C)C)CC5)cn4)c3)n2)cn1 (single isomer, unassigned)",
    "target-or-system": "c-Met kinase (recombinant c-Met) (Homo sapiens, UniProt P08581)",
    "quantity-name": "pIC50",
    "result": "> 7.00"
  },
  {
    "compound": "Cn1cc(-n2ccc(=O)c(Cc3cccc(-c4ncn(CCN5CCCC5=O)n4)c3)n2)cn1",
    "target-or-system": "c-Met kinase (recombinant c-Met) (Homo sapiens, UniProt P08581)",
    "quantity-name": "pIC50",
    "result": "6.00 to 7.00"
  }
]

Value of measured pIC50 for the entry `CC(C)COC(=O)Nc1cccc(Cc2nn(-c3ccc(Br)cc3)ccc2=O)c1` : > 7.00

Value of measured pIC50 for the entry Cn1cc(-n2ccc(=O)c(Cc3cccc(NC(=O)OCC(F)CN)c3)n2)cn1 (racemic) : > 7.00

Value of measured pIC50 for the entry `COCCOC(=O)Nc1cccc(Cc2nn(-c3cc(Cl)cc(C#N)c3)ccc2=O)c1` : > 7.00

Value of measured pIC50 for the entry Cn1cc(-n2ccc(=O)c(Cc3cccc(-c4ncc(O[C@@H]5CCC[C@H]5O)cn4)c3)n2)cn1 (single isomer, unassigned) : > 7.00

Value of measured pIC50 for the entry `Cn1cc(-n2ccc(=O)c(Cc3cccc(-c4noc(CC5COC5)n4)c3)n2)cn1` : 6.00 to 7.00

Value of measured pIC50 for the entry `Cn1cc(-n2ccc(=O)c(Cc3cccc(-c4ncc(-c5ccn(C)n5)cn4)c3)n2)cn1` : > 7.00
